meta.source: paper PMC4456386

# maps each entry to its pKd
target: Bet v 1a (Betula pendula, UniProt P15494); construct: made in house; experiment: 1H-15N HSQC NMR titration (chemical shift perturbation) of 15N-Bet v 1a; type: binding, Betula verrucosa; conditions: Dissociation constant Kd (averaged Kd app), NMR, Bet v 1a; average of all analysable residues with CSPs > 0.08 ppm, ± standard deviation
Sequence (P15494 whole entry): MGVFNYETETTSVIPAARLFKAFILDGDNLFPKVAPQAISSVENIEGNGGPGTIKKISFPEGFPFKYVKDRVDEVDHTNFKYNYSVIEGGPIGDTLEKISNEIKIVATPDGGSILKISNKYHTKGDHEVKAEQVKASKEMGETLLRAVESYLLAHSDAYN
// pKd here means minus log10 of the molar concentration (mol/L)

// known answers, use as guide
[[record]]
molecule = "O=c1c(O)c(-c2ccc(O)c(O)c2)oc2cc(O)ccc12"
experimental_value = 4.43

[[record]]
molecule = "O=c1cc(-c2ccccc2)oc2ccccc12"
experimental_value = 4.17

[[record]]
molecule = "O=c1c(O)c(-c2cc(O)c(O)c(O)c2)oc2cc(O)cc(O)c12"
experimental_value = 4.84

[[record]]
molecule = "O=c1c(O[C@@H]2O[C@H](CO)[C@@H](O)[C@H](O)[C@H]2O)c(-c2ccc(O)c(O)c2)oc2cc(O)cc(O)c12 [Q3OGlc, quercetin-3-O-glucoside]"
experimental_value = 3.54


Item: `O=c1c(O)c(-c2ccc(O)c(O)c2)oc2cc(O)cc(O)c12` Test system: Bet v 1a (Betula pendula, UniProt P15494) Read-out: pKd Value: ?
4.50
